# Test system: murine neural precursor cells (neurosphere cultures)
# ASSAY_COMMENT: HTS of LOPAC library against secondary neurosphere cultures, MTT proliferation assay at 3 μM, day 7 (z score, P value)
# Assay type: cell-based, mouse
# ASSAY_SETUP: 168 h, 3 µM
Where a name gives a salt, the structure may show the parent alone.
Provide the reported Z score of each item.
The reply should be a number, written without any unit.

Given CC1CN(S(=O)(=O)c2cccc3cnccc23)CCN1.Cl.Cl (stereo not drawn) , state its recorded Z score.
0.477

For COc1ccccc1N1CCN(CCCNc2cc(=O)n(C)c(=O)n2C)CC1 [Urapidil hydrochloride] then?
0.157

And then Br.CCSC(=N)N [S-Ethylisothiourea hydrobromide] , what is it?
−1.599

Also, COc1ccccc1CNCCCCCCNCCCCCCCCNCCCCCCNCc1ccccc1OC [Methoctramine (31), Methoctramine, reference compound] please.
−7.012

Try O=c1cc(O)cc(/C=C/c2ccc(O)c(O)c2)o1 [Hispidin] next.
0.890

Again, but for CC1=C(/C=C/C(C)=C/C=C/C(C)=C/C=C/C=C(C)/C=C/C=C(C)/C=C/C2=C(C)C(=O)[C@@H](O)CC2(C)C)C(C)(C)C[C@H](O)C1=O [Astaxanthin]
1.571

Please answer likewise for NC(CCCP(=O)(O)O)C(=O)O (racemic) [(±)-2-Amino-5-phosphonopentanoic acid]
−1.045

Then this molecule: CN(C)CC/C=C1/c2ccccc2Sc2ccc(Cl)cc21 [Chlorprothixene hydrochloride]
−5.008

Then O=C(O)[C@H]1CCCN[C@H]1C(=O)O (racemic) [(±)-cis-Piperidine-2,3-dicarboxylic acid] ?
0.155

Also check O=c1oc(Cl)c(Cl)c2ccccc12 [3,4-Dichloroisocoumarin]
−1.120

Check OCCN1CCN(CCCN2c3ccccc3Sc3ccc(C(F)(F)F)cc32)CC1 [Fluphenazine dihydrochloride] too.
−10.197

Next entry: O=c1ccn([C@@H]2O[C@H](COP(=O)([O-])OP(=O)([O-])[O-])[C@@H](O)[C@H]2O)c(=O)[nH]1.[Na+].[Na+].[Na+] [Uridine 5′-diphosphate sodium]
0.707

Consider next the molecule CCCCCC(O)c1cccc(OCc2ccc3ccccc3n2)c1 (stereo not drawn) [REV 5901] in the same way.
−1.184

Same question for CCn1c(=O)c2[nH]c(-c3ccccc3)nc2n(CC)c1=O [1,3-Diethyl-8-phenylxanthine] please.
2.005

Similarly, Nc1nc(Cl)nc2c1ncn2[C@@H]1O[C@H](CO)[C@@H](O)[C@H]1O [2-Chloroadenosine] ?
−0.396

Also N[C@@H](Cc1ccc(O)c(O)c1)C(=O)O [L-3,4-Dihydroxyphenylalanine] , if possible.
2.440

Try the molecule Cl.NCCCCC(=O)O [5-Aminovaleric acid hydrochloride]
−1.670

Now give it for CCCCCC(O)CCCC(=O)O.[Na] (stereo not drawn) [5-hydroxydecanoic acid sodium] too.
0.233

Repeat with COC(=O)[C@H]1[C@H]2C[C@H]3c4[nH]c5ccccc5c4CCN3C[C@H]2CC[C@@H]1O [Rauwolscine hydrochloride]
−1.747

Can you handle CN1CCN(CC/C=C2/c3ccccc3Sc3ccc(S(=O)(=O)N(C)C)cc32)CC1 [Thiothixene hydrochloride] next?
−1.899

Entry to check: CCOC(=O)C1=C(C)NC(=S)NC1c1cccc(O)c1 (stereo not drawn) [Monastrol]
−1.162

Would you kindly repeat that for N#Cc1c(-c2ccccc2)no[n+]1[O-] [4-Phenyl-3-furoxancarbonitrile] ?
0.931

Next: NC(=O)C(=O)[O-].[Na+] [Sodium Oxamate]
0.745

Could you do the same for CN1CCN(C2=Nc3cc(Cl)ccc3Nc3ccccc32)CC1 [Clozapine] , please?
0.547

Please answer likewise for Nc1ccc(CCNc2ncnc3c2ncn3[C@@H]2O[C@H](CO)[C@@H](O)[C@H]2O)cc1 [N6-2-(4-Aminophenyl)ethyladenosine]
−1.323

Follow-up item: O=[N+]([O-])c1cccc2c(Br)n[nH]c12 [3-Bromo-7-nitroindazole]
−1.680

Another molecule to check: O=C(CCc1ccc(O)cc1)c1c(O)cc(O)cc1O [Phloretin]
0.916

Data origin, for the record: patent US8058243B2
